measuredOn: hT1R1/hT1R3 umami receptor (Homo sapiens, UniProt Q7RTX0+Q7RTX1)
Construct: expressed in transfected cells; host or cells: HEK293 derivative stably expressing Gα15, clone I-17, expression induced with mifepristone
Sequence (Q7RTX1 21-841, one chain of several): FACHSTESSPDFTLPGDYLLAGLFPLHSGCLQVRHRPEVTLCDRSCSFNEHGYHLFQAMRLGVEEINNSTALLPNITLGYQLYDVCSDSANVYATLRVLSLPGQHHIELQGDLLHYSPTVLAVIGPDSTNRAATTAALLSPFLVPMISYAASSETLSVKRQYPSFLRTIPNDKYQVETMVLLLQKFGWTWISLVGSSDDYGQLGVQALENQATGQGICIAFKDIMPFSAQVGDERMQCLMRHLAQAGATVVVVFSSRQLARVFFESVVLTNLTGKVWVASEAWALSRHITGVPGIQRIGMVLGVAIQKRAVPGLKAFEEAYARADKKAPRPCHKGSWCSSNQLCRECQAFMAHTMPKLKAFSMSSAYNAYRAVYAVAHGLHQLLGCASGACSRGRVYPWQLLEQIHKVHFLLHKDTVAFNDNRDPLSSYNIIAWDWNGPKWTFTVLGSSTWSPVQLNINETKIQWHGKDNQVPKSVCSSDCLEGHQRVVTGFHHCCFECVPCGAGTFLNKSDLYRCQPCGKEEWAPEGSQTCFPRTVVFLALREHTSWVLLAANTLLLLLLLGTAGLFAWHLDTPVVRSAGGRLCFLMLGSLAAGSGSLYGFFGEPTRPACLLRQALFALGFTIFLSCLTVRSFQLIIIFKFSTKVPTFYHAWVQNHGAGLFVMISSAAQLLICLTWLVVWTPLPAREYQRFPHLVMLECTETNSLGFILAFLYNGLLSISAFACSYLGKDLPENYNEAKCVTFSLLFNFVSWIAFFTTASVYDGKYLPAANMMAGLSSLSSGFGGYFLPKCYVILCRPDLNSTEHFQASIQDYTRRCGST
testName: In vitro hT1R1/hT1R3 umami taste receptor activation assay (FLIPR, dose response)
Format: cell-based
measurementParameters: Table A, Umami Amides; read-out: Umami EC50
pEC50: −log10 of the molar value.
reportedMetric: pEC50

| compound | valueReported |
| --- | --- |
| CCCC(NC(=O)c1ccc(OC)c(C)c1)C(C)C (centres unmarked) | 6.70 |
| Cc1ccc(C(=O)NC2CCCc3ccccc32)s1 (centres unmarked) | 5.88 |
| COc1cccc(C(=O)N[C@H]2CCCc3ccccc32)c1O | 6.15 |
| CCCC(CC(C)C)NC(=O)c1ccc2nc(C)oc2c1 (centres unmarked) | 5.95 |
| CCC(CC)NC(=O)c1cc2cc(OC)ccc2o1 | 5.94 |
| CCCC(CCC)NC(=O)c1ccc(OC)cc1 [Example A79, N-(heptan-4-yl)-4-methoxybenzamide] | 6.34 |
| CCOC(=O)[C@H]1CCCC[C@H]1NC(=O)c1ccc(OC)c(Cl)c1 | 5.87 |
| COC(=O)[C@@H](CC(C)C)NC(=O)c1ccc2ncccc2c1 | 5.82 |
| COc1ccc(CNC(=O)c2ccccc2-c2ccccc2)c(OC)c1 | 5.86 |
| CCCC(CCC)NC(=O)c1cccc(OC)c1 [Example A90, N-(heptan-4-yl)-3-methoxybenzamide] | 6.21 |
| COc1cccc(C(=O)NC2CCCCC2C)c1N (centres unmarked) | 7.70 |
| COC(=O)[C@@H](CC(C)C)NC(=O)c1ccc(OC)c(C)c1 | 6.60 |
| COc1ccc(C(=O)NC(C)c2ccc(C)cc2)cc1Cl (centres unmarked) | 5.96 |
| CCC(NC(=O)c1cc2cc(OC)ccc2o1)C(C)C (centres unmarked) | 5.93 |
| CCCC(CCC)NC(=O)c1ccc(OC)c([N+](=O)[O-])c1 | 7.10 |
| COc1ccc2c(c1)CCC2NC(=O)c1ccc(O)c(C)c1 (centres unmarked) | 6.52 |
| CCCC(COC)NC(=O)c1cc2cc(OC)ccc2o1 (centres unmarked) | 5.89 |
| COc1ccc(C(=O)N[C@H]2CCCc3ccccc32)cc1C | 7.10 |
| CCC(CC(C)C)NC(=O)c1cc2cc(C)ccc2o1 (centres unmarked) | 6.30 |
| COc1ccc(CNC(=O)c2ccncc2-n2cccc2)c(OC)c1 | 6.54 |
| COC(=O)[C@@H](CC(C)C)NC(=O)c1cccc(C)c1 | 6.05 |
| Cc1ccc(C(=O)N[C@H]2CCc3ccccc32)cc1C | 6.10 |
| CCCC(CCC)NC(=O)c1cc(COC)c(CC)o1 | 7.52 |
| COC(=O)[C@@H](CC(C)C)NC(=O)c1cc(C)c(OC)c(C)c1 | 6.13 |
| CCCC(CCC)NC(=O)c1cc2c(s1)CCC2 | 6.82 |
| CCCCC(CCCC)NC(=O)c1ccc2c(c1)OCO2 | 6.15 |
| C=Cc1ccc(C(=O)N[C@H](CC(C)C)C(=O)OC)cc1 | 6.74 |
| CCCC(C)NC(=O)c1ccc(OC)c(Cl)c1 (centres unmarked) | 6.33 |
| CCC(NC(=O)c1ccc(OC)c(C)c1)C(C)C (centres unmarked) | 6.70 |

* * *

Reported pEC50 values are given for each entry in this list.
measuredOn: hT1R2/hT1R3 sweet receptor (Homo sapiens, UniProt Q7RTX0+Q8TE23)
Construct: expressed in transfected cells; host or cells: HEK293 derivative stably expressing Gα15, clone S-9
Sequence (Q8TE23 20-839): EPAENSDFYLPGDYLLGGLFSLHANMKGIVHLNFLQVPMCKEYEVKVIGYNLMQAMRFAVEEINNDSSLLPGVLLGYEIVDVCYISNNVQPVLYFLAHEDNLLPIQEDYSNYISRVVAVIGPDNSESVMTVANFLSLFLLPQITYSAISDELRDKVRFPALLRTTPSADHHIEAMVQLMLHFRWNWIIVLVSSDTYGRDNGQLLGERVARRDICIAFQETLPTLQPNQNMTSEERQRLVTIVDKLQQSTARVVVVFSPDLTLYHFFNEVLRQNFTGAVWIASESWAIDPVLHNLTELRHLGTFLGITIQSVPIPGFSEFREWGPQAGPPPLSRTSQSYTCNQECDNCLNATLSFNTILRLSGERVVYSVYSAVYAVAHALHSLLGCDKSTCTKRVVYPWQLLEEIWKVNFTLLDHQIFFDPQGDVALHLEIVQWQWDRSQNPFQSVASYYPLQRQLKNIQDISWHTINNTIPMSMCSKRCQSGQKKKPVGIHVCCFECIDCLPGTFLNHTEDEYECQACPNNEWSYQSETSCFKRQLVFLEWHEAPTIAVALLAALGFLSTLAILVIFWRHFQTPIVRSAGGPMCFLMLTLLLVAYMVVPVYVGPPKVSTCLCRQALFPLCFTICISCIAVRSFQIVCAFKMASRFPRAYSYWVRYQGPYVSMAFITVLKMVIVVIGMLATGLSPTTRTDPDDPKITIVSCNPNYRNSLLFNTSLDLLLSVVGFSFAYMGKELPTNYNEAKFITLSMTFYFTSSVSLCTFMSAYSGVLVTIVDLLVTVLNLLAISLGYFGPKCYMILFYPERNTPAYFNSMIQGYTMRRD
Sequence (Q7RTX0 21-852): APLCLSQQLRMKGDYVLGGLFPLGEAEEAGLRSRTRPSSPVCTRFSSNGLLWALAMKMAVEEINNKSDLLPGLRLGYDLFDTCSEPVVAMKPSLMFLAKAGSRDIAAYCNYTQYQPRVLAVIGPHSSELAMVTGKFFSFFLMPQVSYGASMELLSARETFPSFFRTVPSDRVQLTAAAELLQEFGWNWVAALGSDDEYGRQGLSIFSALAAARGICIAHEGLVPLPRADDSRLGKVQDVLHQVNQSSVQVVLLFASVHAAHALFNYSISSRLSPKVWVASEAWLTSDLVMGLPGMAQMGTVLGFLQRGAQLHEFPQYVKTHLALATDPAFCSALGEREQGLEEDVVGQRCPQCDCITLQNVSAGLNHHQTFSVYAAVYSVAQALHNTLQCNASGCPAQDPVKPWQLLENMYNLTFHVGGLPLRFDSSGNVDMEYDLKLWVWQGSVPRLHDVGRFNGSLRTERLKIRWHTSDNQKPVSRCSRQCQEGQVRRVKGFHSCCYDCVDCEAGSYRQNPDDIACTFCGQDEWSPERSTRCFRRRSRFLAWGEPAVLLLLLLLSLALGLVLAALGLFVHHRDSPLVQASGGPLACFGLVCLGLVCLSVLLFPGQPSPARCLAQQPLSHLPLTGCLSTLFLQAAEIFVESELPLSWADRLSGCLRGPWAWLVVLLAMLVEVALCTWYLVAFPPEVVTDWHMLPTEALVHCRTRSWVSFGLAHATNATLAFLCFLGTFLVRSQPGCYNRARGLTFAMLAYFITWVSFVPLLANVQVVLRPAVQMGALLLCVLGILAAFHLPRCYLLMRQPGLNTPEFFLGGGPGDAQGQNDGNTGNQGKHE
testName: In vitro hT1R2/hT1R3 sweet taste receptor activation assay (FLIPR, dose response)
Format: cell-based
measurementParameters: Table E, Sweet Enhancer Amides; read-out: Sweet EC50
pEC50: −log10 of the molar value.

| compound | pEC50 |
| --- | --- |
| COc1ccc(NC(=O)c2ccc(F)c(Cl)c2)c(OC)c1 | 5.45 |
| COc1cccc2c1CCCC2NC(=O)c1conc1C (stereo not shown) | 5.55 |
| COc1ccc(NC(=O)N2Cc3cccc(C)c3C2)c(F)c1 | 7.00 |
| CC1CCCCC1NC(=O)c1ccc(F)c(Cl)c1 (stereo not shown) | 5.77 |
| Cc1cccc2c1CCC[C@H]2NC(=O)c1cccc(Cl)c1O | 6.05 |
| COc1ccc(NC(=O)N2Cc3cccc(C)c3C2)c(C)c1 | 6.15 |
| COc1c(Cl)ccc(Cl)c1C(=O)NC1CCCC(C)C1C (stereo not shown) | 5.89 |
| COc1ccc2c(c1)CCCC2NC(=O)c1cccc(Cl)c1O (stereo not shown) | 5.79 |
| Cc1c(F)c(F)c(C(=O)NCC(C)C)c(F)c1F | 5.50 |
| C/C=C/c1c(F)c(F)c(C(=O)N[C@@H](C)C(C)C)c(F)c1F | 6.39 |

* * *

measuredOn: hT1R2/hT1R3 sweet receptor (Homo sapiens, UniProt Q7RTX0+Q8TE23)
Construct: expressed in transfected cells; host or cells: HEK293 derivative stably expressing Gα15, clone S-9
testName: In vitro hT1R2/hT1R3 sweet taste receptor activation assay (FLIPR, dose response)
Assay type: cell-based
measurementParameters: Table E, Sweet Enhancer Amides; read-out: Sweet EC50
Consider the cut-off 1 µM. If the recorded EC50 is strictly smaller, the label is y; if not, the label is n.

| compound | classification |
| --- | --- |
| Cc1c(Cl)cccc1C(=O)N[C@H]1CCCc2ccccc21 [Example E13] | n |
| COc1cc(Cl)c(NC(=O)c2cccc(C(F)(F)F)c2)c(OC)c1 [Example E85] | n |
| CC1CCCCC1NC(=O)c1ccc(F)c(C(F)(F)F)c1 (centres unmarked) [Example E32] | y |
| CC(C)C(NC(=O)c1c(O)cccc1O)C(C)C [Example E79] | n |
| CC1CCCCC1NC(=O)c1c(Cl)cccc1Cl (centres unmarked) [Example E39] | y |
| O=C(Nc1ccc(F)cc1F)N1Cc2ccccc2C1 [Example E101] | n |
| Cc1c(NC(=O)N2Cc3ccccc3C2)cccc1[N+](=O)[O-] [Example E102] | n |
| Cc1ccc(NC(=O)c2ccc(Cl)c(C)c2)c(C)c1 [Example E92] | n |
